measurement.target: T1, cynomolgus monkey VTCN1 protein (cynomolgus monkey, UniProt A0A2K5U6P5 25-259)
T1 construct: The construct and its tag are not described; also called cyno VTCN1
T1 sequence: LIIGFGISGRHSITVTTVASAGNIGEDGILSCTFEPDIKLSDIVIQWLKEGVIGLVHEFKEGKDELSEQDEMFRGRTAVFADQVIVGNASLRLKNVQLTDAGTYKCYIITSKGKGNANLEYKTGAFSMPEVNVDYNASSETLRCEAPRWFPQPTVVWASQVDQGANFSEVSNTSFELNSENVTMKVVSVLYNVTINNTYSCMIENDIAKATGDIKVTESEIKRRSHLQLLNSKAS
protocol.description: BLI (OCTET Red), antibody on Protein A biosensor, cyno VTCN1
Each item that follows carries a reported Kd.
Reply with just the number (in nM).

[
  {
    "binder": "10D1 (antibody, V domains shown, Recombinant mouse antibody made in CHO cells) VH: QVQLQESGPELVKPGASVKLSCKASGYIFTDYTIHWLKQSPGQGLEWIGWIYPGSGHTHYNDKFKGKATMTADKSSTTAYMQLSSLTSEDSAVFFCARGGESITTVFPLAYWGQGTLVTVSA VL: DIVMSQSPSSLAVSVGEKVTMSCKSSQSLLYSSDQKNYLAWYQQKPGQSPKLLIYWASTWESGVPDRFIGSGSGTDFTLTVSSVKAEDLAVYYCHQYYSYPPTFGAGTKLEIK",
    "measure.unit": "nM",
    "Kd": 1
  },
  {
    "binder": "6E2 (antibody, V domains shown, Recombinant mouse antibody made in CHO cells) VH: QIQLQESGPGLVQPSQSLSITCTVSGFSLTSYGVQWVRQSPGKGLEWLGVIWSGGSTDYNAAFISRLSISKDNSKSQVFFKMNSLQADDTAIYYCARDISTIVEGFAHWGQGTLVTVSS VL: NIVMTQSPKSMSMSVGERVTLSCKASEKVGTYVSWYQQKPEQSPKLLIYGASNRYTGVPDRFTGSGSATDFTLTISSVQAEDLADYHCGQSYRYPFTFGSGTKLEIK",
    "measure.unit": "nM",
    "Kd": 19
  }
]

Query :: // Kd lookup, key: 6D9 (antibody, mouse IgG2a, V domains shown, also called 6D9-mIgG2a; murine VTCN1 antibody 6D9) VH: QIQLQQSGPGLVQPSQSLSITCTVSGFSLTSYGVQWIRQSPGKGLEWLGVIWSSGSTDYNAAFLSRLSFSKDNSKSQVFFQMNSLQADDSAIYYCARDVTTIVEGFAHWGQGTLVTVSA VL: NIVMTQSPKSMSMSVGERVTLSCKASEKVGTYVSWYQQKPEQSPKLLIYGASNRYTGVPDRFTGSGSATDFTLTISSVQVEDLADYHCGQTYSYPFTFGSGTKLEIK
Result :: 7
